Below, each of the compounds is paired with its reported inhibition value.
protocol summary: inhibitors of E-selectin induction by TNFa, primary screen, imaging, HUVEC, immunofluorescence, MLSMR starter and 10KST1 sets (AID 487);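 further: signal is fraction of cell area covered by stained E-selectin grains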
measurement setup: HUVEC TNFalpha-induced E-selectin immunofluorescence imaging, at 2 µM; stronger effect = higher value
Activity calls are given as the source filed them.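 How the source made its calls: active means visually confirmed hit in the image check and inhibition above 20%; inconclusive means visually confirmed hit but inhibition not above 20%; inactive means no visual hit in the image check.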
recorded metric: inhibition

- C[N+](C)(C)CCOP(=O)([O-])OC[C@H](O)CO: -60.7% (inactive)
- CCc1cc(=O)oc2c(CN3CCCC3)c(O)c(Cl)cc12: -56.3% (inactive)
- CCC(=O)c1ccc(O)cc1: -19.7% (inactive)
- CCOC(=O)c1[nH]c2ccc(OC)cc2c1NC(=O)CN1CCN(c2ccccn2)CC1: -2.8% (inactive)
- Cc1cccc(C)c1OCC(O)CNS(=O)(=O)c1ccccc1C(=O)N1CCCCC1 (stereo unspecified): -148% (inactive)
- Cc1c(/C(O)=C2\C(=O)C(=O)N(CCCN(C)C)C2c2ccccc2)cnn1-c1ccccc1 (stereo unspecified): -134% (inactive)

###

Listed compounds paired with reported nuclei count
protocol summary: inhibitors of mutant huntingtin aggregation, primary screen, imaging, exon1htt(103Q)mCFP cells, high-content imaging (AID 483);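 further: compound exposure lasted 3 days before fixation; percent of the per-plate median nuclei count of sample wells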
measurement setup: exon1htt(103Q)mCFP cell line, aggregate imaging, at 2 µM; measured here: cell count, toxicity
recorded metric: nuclei count

- C[N+](C)(C)CCOP(=O)([O-])OC[C@H](O)CO: 105%
- CN1C(C(=O)Nc2ccccn2)=C(O)c2ccccc2S1(=O)=O: 111%
- COC(=O)c1cccc(Nc2cc(C)nc(-c3ccccc3O)n2)c1: 92.7%
- CCCN(CCC)C(=O)C(CCC(=O)O)NC(=O)c1ccccc1 (stereo unspecified): 92.5%
- COc1ccc(Cl)cc1C(=O)NCCc1ccc(S(=O)(=O)NC(=O)NC2CCCCC2)cc1: 105%
- CCN(CC)C(=O)CSC1=C(C#N)C(c2ccco2)C(C(=O)OCCOC)=C(C)N1 (stereo unspecified): 104%
- Cn1c(SCC(=O)N2CCOCC2)nnc1-c1cccc(NC(=O)c2ccccc2F)c1: 115%
- OCCNC1=NCCN1: 104%
- C=CCSc1nnc2n(-c3ccccc3OC)c(=O)c3c4c(sc3n12)CCC4: 59.7%
- CN(C)C(CN1C(=O)C2CC=CCC2C1=O)c1cn(C)c2ccccc12 (stereo unspecified): 99.9%
- COC(=O)c1cc(Br)c(=O)n(-c2nccs2)c1: 102%

###

experimental target: Dual specificity protein phosphatase 6 (Homo sapiens)
protocol summary: DUSP6 inhibitors restoring Erk phosphorylation by chemical complementation, primary imaging in DUSP6-transfected HeLa (AID 609);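 further: phospho-Erk level distribution per well compared with pooled transfected vehicle control wells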
measurement setup: HeLa MKP-3 transfected, phospho-Erk imaging KS statistic; at 10 µM; stronger effect = higher value; cells stimulated with TPA for 15 min
recorded metric: inhibition (%)

• CCn1c(-c2ccco2)n[nH]c1=S = 22.3
• Cn1ccnc1SCCC#N = 6.04
• Cc1c(/C(O)=C2\C(=O)C(=O)N(CCN(C)C)C2c2cccnc2)cnn1-c1ccccc1 (stereo unspecified) = -8.76
• CC(=O)NC1(C(F)(F)F)C(=O)Nc2c1c(=O)n(C)c(=O)n2C (stereo unspecified) = 1.6e-07
• CCNC(=O)Nn1c(C)nnc1C = -8.27
• Cc1cccc(OCc2nc(C)cc(=O)[nH]2)c1 = 14
